- target.under.test: GST-SNAP25 197 (UniProt P60880)
- Sequence (P60880 1-197 limits assumed): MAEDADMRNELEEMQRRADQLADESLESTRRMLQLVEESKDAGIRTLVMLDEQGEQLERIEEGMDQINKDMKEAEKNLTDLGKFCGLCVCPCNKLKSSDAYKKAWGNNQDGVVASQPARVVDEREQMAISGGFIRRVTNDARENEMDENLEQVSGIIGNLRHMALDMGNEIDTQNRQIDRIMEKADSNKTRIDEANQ
- assay.text: direct ELISA; A450 on GST-SNAP25 197 divided by A450 on GST-SNAP25 FL
Items are presented alongside their recorded Ratio 197/206.
measurement.kind: Ratio 197/206

binder="C7 (antibody, V domains shown) VH: QVQLVETGGGLVQPKGSLKLSCAASGFTFNTNAMNWVRQAPGKGLEWVARIRSKSNNYATYYADSVKDRFTISRDDSQSLLYLQMNNLKTEDTAMYYCVYGRSYGGLSYWGQGTLVTVSA VL: DIVMTQSPASLAVSLGQRATISCRASKSVSSSGYSYMHWYQQKPGQPPKLLIYLASNLESGVPARFSGSGSGTDFTLNIHPVEEEDAATYYCQHSRELPLTFGAGTKLELK" result=1040
binder="B4 (antibody, V domains shown) VH: EVKLVESGGGLVKPGGSLKLSCAASGFTFSNYGMSWVRQTPEKRLEWVATISSGGSYTYYPDSVKGRFTISRDNAKNTLYLQMSSLRSEDTAMYYCARHEGGGNPYFDYWGQGTTLTVSS VL: DVLMTQTPLSLPVSLGDQASISCRSSQSLVHSNGNTYLHWYLQKPGQSPKLLIYKVSNRFSGVPDRFSGSGSGTDFTLKISRVEAEDLGVYFCSQNTLVPWTFGGGTKLEIK" result=0.83
